Target: uPAR-expressing HEC-265 human endometrial adenocarcinoma cells (Homo sapiens, UniProt Q03405)
Sequence (Q03405 23-335): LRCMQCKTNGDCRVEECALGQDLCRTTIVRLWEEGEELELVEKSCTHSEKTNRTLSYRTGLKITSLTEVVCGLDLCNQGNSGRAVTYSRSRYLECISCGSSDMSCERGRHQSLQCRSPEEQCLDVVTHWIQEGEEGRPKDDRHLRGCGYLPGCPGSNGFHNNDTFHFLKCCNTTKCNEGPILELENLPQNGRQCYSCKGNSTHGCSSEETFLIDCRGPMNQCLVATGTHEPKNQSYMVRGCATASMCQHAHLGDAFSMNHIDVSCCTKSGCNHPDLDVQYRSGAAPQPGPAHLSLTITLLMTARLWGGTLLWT
Where a SMILES comes first, the peptide text is derived from it. Bridges are numbered along the chain shown (N, C = ends). [ ]: non-standard residue; d: D form. The star is where a group is joined. Cit = NC(=O)NCCC[C@H](N)C(=O)O; dNle = CCCC[C@@H](N)C(=O)O; Pentanoyl = CCCCC(=O)*
I'd be grateful if you could share measured IC50 for these entries.

CCCC[C@H]1NC(=O)[C@H](CCCNC(=N)N)NC(=O)[C@@H](NC(=O)[C@H](CC(C)C)NC(=O)[C@H](CC(=O)O)NC(C)=O)CSSC[C@@H](C(N)=O)NC(=O)[C@H](CC(C)C)NC(=O)[C@H]([C@@H](C)CC)NC(=O)[C@H](C)NC(=O)[C@@H]2CCCN2C(=O)[C@H](Cc2ccccc2)NC(=O)[C@H](Cc2ccc(O)cc2)NC1=O [UPAR-274] (Ac-DLCR[dNle]YFPAILC-NH2; disulfide 3-12) :: 12.6 to 31.6 nM

Proceeding to the next molecule to report its IC50.
Please list IC50 recorded for the molecule CCCCC(=O)N[C@H]1CSSC[C@@H](C(N)=O)NC(=O)[C@H](CC(C)C)NC(=O)[C@H]([C@@H](C)CC)NC(=O)[C@@H](C)NC(=O)[C@@H]2CCCN2C(=O)[C@H](Cc2ccccc2)NC(=O)[C@H](Cc2ccc(O)cc2)NC(=O)[C@H](CCC(N)=O)NC(=O)[C@H](CCCNC(N)=O)NC1=O [UPAR-362] (Pentanoyl-C[Cit]QYFP[dA]ILC-NH2; disulfide 1-10)
≤ 10 nM

###

I'd be grateful if you could share measured IC50 for these entries.
Molecular target: uPAR-expressing HEC-265 human endometrial adenocarcinoma cells (Homo sapiens, UniProt Q03405)
Where a SMILES comes first, the peptide text is derived from it. Bridges are numbered along the chain shown (N, C = ends). [ ]: non-standard residue; d: D form. The star is where a group is joined. Pentanoyl(4-Me) = CC(C)CCC(=O)*; Cit = NC(=O)NCCC[C@H](N)C(=O)O; Thz = O=C(O)[C@@H]1CSCN1; Nva = CCC[C@H](N)C(=O)O; Pentanoyl = CCCCC(=O)*

CC[C@H](C)[C@@H]1NC(=O)[C@@H](C)NC(=O)[C@@H]2CSCN2C(=O)[C@H](Cc2ccccc2)NC(=O)[C@H](Cc2ccc(O)cc2)NC(=O)[C@H](CCC(N)=O)NC(=O)[C@H](CCCNC(N)=O)NC(=O)[C@@H](NC(=O)CCC(C)C)CSSC[C@@H](C(N)=O)NC(=O)[C@H](CC(C)C)NC1=O [UPAR-375] ({Pentanoyl(4-Me)}-C[Cit]QYF[Thz][dA]ILC-NH2; disulfide 1-10) :: ≤ 10 nM

Proceeding to the next molecule to report its IC50.
Please list IC50 recorded for the molecule CCCCC(=O)N[C@H]1CSSC[C@@H](C(N)=O)NC(=O)[C@H](CCC)NC(=O)[C@H]([C@@H](C)CC)NC(=O)[C@@H](CC(=O)O)NC(=O)[C@@H]2CCCN2C(=O)[C@H](Cc2ccccc2)NC(=O)[C@H](Cc2ccc(O)cc2)NC(=O)[C@H](CCC(N)=O)NC(=O)[C@H](CCCNC(=N)N)NC1=O [UPAR-161] (Pentanoyl-CRQYFP[dD]I[Nva]C-NH2; disulfide 1-10)
≤ 10 nM

###

I'd be grateful if you could share measured Kd for these entries.
Biological target: human uPAR (uPAR-Fc) (Homo sapiens, UniProt Q03405)
Construct: comprising amino acids Leu23-Arg303 according to UniProt entry Q03405.1; purchased R&D Systems 10378-UK-100
Sequence (Q03405 23-303): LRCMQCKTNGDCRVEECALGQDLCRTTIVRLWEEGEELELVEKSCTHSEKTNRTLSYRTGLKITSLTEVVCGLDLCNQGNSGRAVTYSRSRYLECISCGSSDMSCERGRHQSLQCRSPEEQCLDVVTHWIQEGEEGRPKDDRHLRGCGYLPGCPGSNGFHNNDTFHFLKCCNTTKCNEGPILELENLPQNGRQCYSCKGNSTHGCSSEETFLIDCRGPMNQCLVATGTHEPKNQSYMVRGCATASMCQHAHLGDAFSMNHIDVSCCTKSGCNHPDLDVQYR
Assay: Surface plasmon resonance (SPR) assay, single cycle kinetics
Format: binding
Settings: pKD category for uPAR SPR activity assay; uPAR-Fc on Protein A-Chip, single cycle kinetics, 25°C; read-out: pKD CAT (converted)
*1 amine or outer side, *2 acyl side, *3 side chain or, on linkers, in order; H or OH if unused. Where a SMILES comes first, the peptide text is derived from it. Bridges are numbered along the chain shown (N, C = ends). [ ]: non-standard residue; d: D form. The star is where a group is joined. X6 = O=C(O)CN1CCN(CC(=O)O)CCN(CC(=O)NCCCOCCOCCOCCCN*)CCN(CC(=O)O)CC1; Suc = O=C(CCC(=O)[*:2])[*:1]; Nle = CCCC[C@H](N)C(=O)O

CCCC[C@H](NC(=O)CCC(=O)NCCCOCCOCCOCCCNC(=O)CN1CCN(CC(=O)O)CCN(CC(=O)O)CCN(CC(=O)O)CC1)C(=O)N[C@@H](CC(=O)O)C(=O)N[C@@H](CC(C)C)C(=O)N[C@H]1CSSC[C@@H](C(N)=O)NC(=O)[C@H](CC(C)C)NC(=O)[C@H]([C@@H](C)CC)NC(=O)[C@H](C)NC(=O)[C@@H]2CCCN2C(=O)[C@H](Cc2ccccc2)NC(=O)[C@H](Cc2ccc(O)cc2)NC(=O)[C@H](CCSC)NC(=O)[C@H](CCCNC(=N)N)NC1=O [UPAR-347] ({X6-Suc}-[Nle]DLCRMYFPAILC-NH2; disulfide 4-13) :: < 1.58 nM

Find Kd for CCCC[C@@H]1NC(=O)[C@H](CCCNC(=N)N)NC(=O)[C@@H](NC(=O)[C@H](CC(C)C)NC(=O)[C@H](CC(=O)O)NC(C)=O)CSSC[C@@H](C(N)=O)NC(=O)[C@H](CC(C)C)NC(=O)[C@H]([C@@H](C)CC)NC(=O)[C@@H](C)NC(=O)[C@@H]2CCCN2C(=O)[C@H](Cc2ccccc2)NC(=O)[C@H](Cc2ccc(O)cc2)NC1=O [UPAR-406] (Ac-DLCR[Nle]YFP[dA]ILC-NH2; disulfide 3-12) on human uPAR (uPAR-Fc) (Homo sapiens, UniProt Q03405) and write it down.
< 1.58 nM

###

Molecular target: uPAR-expressing HEC-265 human endometrial adenocarcinoma cells (Homo sapiens, UniProt Q03405)
pIC50: −log10 of the molar value. Where a SMILES comes first, the peptide text is derived from it. Bridges are numbered along the chain shown (N, C = ends). [ ]: non-standard residue; d: D form. The star is where a group is joined. DOTA = O=C(O)CN1CCN(CC(=O)O)CCN(CC(=O)*)CCN(CC(=O)O)CC1; Phe(2,4-Cl2) = N[C@@H](Cc1ccc(Cl)cc1Cl)C(=O)O; Phe(4-Cl) = N[C@@H](Cc1ccc(Cl)cc1)C(=O)O; Bta = N[C@@H](Cc1csc2ccccc12)C(=O)O; Hyp = O=C(O)[C@@H]1C[C@@H](O)CN1; 4Pal = N[C@@H](Cc1ccncc1)C(=O)O; Pentanoyl(4-Me) = CC(C)CCC(=O)*; Cit = NC(=O)NCCC[C@H](N)C(=O)O; Nva = CCC[C@H](N)C(=O)O; Pentanoyl = CCCCC(=O)*
endpoint: pIC50

Here is how some compounds turned out for pIC50.
CC[C@H](C)[C@@H]1NC(=O)[C@@H](C)NC(=O)[C@@H]2CCCN2C(=O)[C@H](Cc2ccc(Cl)cc2)NC(=O)[C@H](Cc2ccc(O)cc2)NC(=O)[C@H](CCC(N)=O)NC(=O)[C@H](CCCNC(N)=O)NC(=O)[C@@H](NC(=O)CCC(C)C)CSSC[C@@H](C(N)=O)NC(=O)[C@H](CC(C)C)NC1=O [UPAR-332] ({Pentanoyl(4-Me)}-C[Cit]QY[Phe(4-Cl)]P[dA]ILC-NH2; disulfide 1-10) :: ≥ 8.00
CCCCC(=O)N[C@H]1CSSC[C@@H](C(N)=O)NC(=O)[C@H](CCC)NC(=O)[C@H]([C@@H](C)CC)NC(=O)[C@@H]2C[C@@H](O)CN2C(=O)[C@@H]2CCCN2C(=O)[C@H](Cc2csc3ccccc23)NC(=O)[C@H](Cc2ccc(O)cc2)NC(=O)[C@H](CCC(N)=O)NC(=O)[C@H](CCCNC(=N)N)NC1=O [UPAR-273] (Pentanoyl-CRQY[Bta]P[Hyp]I[Nva]C-NH2; disulfide 1-10) :: ≥ 8.00
CCCCC(=O)N[C@H]1CSSC[C@@H](C(N)=O)NC(=O)[C@H](CCC)NC(=O)[C@H]([C@@H](C)CC)NC(=O)[C@@H]2C[C@@H](O)CN2C(=O)[C@@H]2CCCN2C(=O)[C@H](Cc2ccc(Cl)cc2Cl)NC(=O)[C@H](Cc2ccc(O)cc2)NC(=O)[C@H](CCCCNC(=O)CN2CCN(CC(=O)O)CCN(CC(=O)O)CCN(CC(=O)O)CC2)NC(=O)[C@H](CCCNC(N)=O)NC1=O [UPAR-315] (Pentanoyl-C[Cit]K(DOTA)Y[Phe(2,4-Cl2)]P[Hyp]I[Nva]C-NH2; disulfide 1-10) :: ≥ 8.00
CCCCC(=O)N[C@H]1CSSC[C@@H](C(N)=O)NC(=O)[C@H](CCC)NC(=O)[C@H]([C@@H](C)CC)NC(=O)[C@@H]2C[C@@H](O)CN2C(=O)[C@@H]2CCCN2C(=O)[C@H](Cc2ccncc2)NC(=O)[C@H](Cc2ccc(O)cc2)NC(=O)[C@H](CCCCNC(=O)CN2CCN(CC(=O)O)CCN(CC(=O)O)CCN(CC(=O)O)CC2)NC(=O)[C@H](CCCNC(N)=O)NC1=O [UPAR-222] (Pentanoyl-C[Cit]K(DOTA)Y[4Pal]P[Hyp]I[Nva]C-NH2; disulfide 1-10) :: ≥ 8.00

Please list pIC50 recorded for the compound CC[C@H](C)[C@@H]1NC(=O)[C@@H](C)NC(=O)[C@@H]2CCCN2C(=O)[C@H](Cc2ccc(O)cc2)NC(=O)[C@H](Cc2ccc(O)cc2)NC(=O)[C@H](CCC(N)=O)NC(=O)[C@H](CCCNC(N)=O)NC(=O)[C@@H](NC(=O)CCC(C)C)CSSC[C@@H](C(N)=O)NC(=O)[C@H](CC(C)C)NC1=O [UPAR-343] ({Pentanoyl(4-Me)}-C[Cit]QYYP[dA]ILC-NH2; disulfide 1-10)
7.50 to 7.90

Values from patent EP4610269A1
